Assay: Probe fluorescence ratio response to oleate:BSA complex, relative to ADIFAB2 (ΔR/ΔRAD2)
Type: binding
Settings: fluorescence response (R-Ro) relative to ADIFAB2; oleate
Description: The intensity ratio (“R” value) for a given probe is determined. The ratio is calculated using the following formula: R=Fλ1/Fλ2 wherein, Fλ1, is the measured fluorescence intensities (intensity of sample with probe present minus intensity of sample without probe present) at wavelength 1 and Fλ2 is the measured fluorescence intensities (intensity of sample with probe present minus intensity of sample without probe present) at wavelength 2. […] Plates were prepared and read in two stages. […]
Kindly apply the following: true (1) if ΔR/ΔRAD2 OA is less than 0.9, false (0) in every other case.

{"Molecule": "L1P5 A10: acrylodan-labeled rI-FABP mutein: Y14 wt, L38 wt, L72 wt, Y117 A (protein, UniProt P02693 2-132, looked up, variant Y117A, acrylodan label, acrylodan-labeled rI-FABP mutein: Y14 wt, L38 wt, L72 wt, Y117 A) Fatty acid-binding protein, …: AFDGTWKVDRNENYEKFMEKMGINVVKRKLGAHDNLKLTITQEGNKFTVKESSNFRNIDVVFELGVDFAYSLADGTELTGTWTMEGNKLVGKFKRVDNGKELIAVREISGNELIQTATYEGVEAKRIFKKE", "Answer Label": "false (0)"}
{"Molecule": "Y117A, L72A: acrylodan-labeled rI-FABP mutein Y117A, L72A (protein) AFDGTWKVDRNENYEKFMEKMGINVVKRKLGAHDNLKLTITQEGNKFTVKESSNFRNIDVVFELGVDFAYSAADGTELTGTWTMEGNKLVGKFKRVDNGKELIAVREISGNELIQTATYEGVEAKRIFKKE", "Answer Label": "false (0)"}
{"Molecule": "L2P9E12: acrylodan-labeled rI-FABP-L72A mutein: M18 L, G31 WT, F55 L, A73 I (protein, UniProt P02693 2-132, looked up, variant M18L F55L L72A A73I, acrylodan label, acrylodan-labeled rI-FABP-L72A mutein: M18 L, G31 WT, F55 L, A73 I) Fatty acid-binding protein, …: AFDGTWKVDRNENYEKFLEKMGINVVKRKLGAHDNLKLTITQEGNKFTVKESSNLRNIDVVFELGVDFAYSAIDGTELTGTWTMEGNKLVGKFKRVDNGKELIAVREISGNELIQTYTYEGVEAKRIFKKE", "Answer Label": "true (1)"}
{"Molecule": "A73I, L72A: acrylodan-labeled rI-FABP mutein A73I, L72A (protein) AFDGTWKVDRNENYEKFMEKMGINVVKRKLGAHDNLKLTITQEGNKFTVKESSNFRNIDVVFELGVDFAYSAIDGTELTGTWTMEGNKLVGKFKRVDNGKELIAVREISGNELIQTYTYEGVEAKRIFKKE", "Answer Label": "true (1)"}
{"Molecule": "L2P12C5: acrylodan-labeled rI-FABP-L72A mutein: M18 I, G31 I, F55 M, A73 I (protein, UniProt P02693 2-132, looked up, variant M18I G31I F55M L72A A73I, acrylodan label) Fatty acid-binding protein, …: AFDGTWKVDRNENYEKFIEKMGINVVKRKLIAHDNLKLTITQEGNKFTVKESSNMRNIDVVFELGVDFAYSAIDGTELTGTWTMEGNKLVGKFKRVDNGKELIAVREISGNELIQTYTYEGVEAKRIFKKE", "Answer Label": "true (1)"}
{"Molecule": "L2P17H10: acrylodan-labeled rI-FABP-L72A mutein: M18 G, G31 F, F55 WT, A73 L (protein, UniProt P02693 2-132, looked up, variant M18G G31F L72A A73L, acrylodan label, acrylodan-labeled rI-FABP-L72A mutein: M18 G, G31 F, F55 WT, A73 L) Fatty acid-binding protein, …: AFDGTWKVDRNENYEKFGEKMGINVVKRKLFAHDNLKLTITQEGNKFTVKESSNFRNIDVVFELGVDFAYSALDGTELTGTWTMEGNKLVGKFKRVDNGKELIAVREISGNELIQTYTYEGVEAKRIFKKE", "Answer Label": "false (0)"}

Task item: Does the reported ΔR/ΔRAD2 OA of A73F, L72A: acrylodan-labeled rI-FABP mutein A73F, L72A (protein) AFDGTWKVDRNENYEKFMEKMGINVVKRKLGAHDNLKLTITQEGNKFTVKESSNFRNIDVVFELGVDFAYSAFDGTELTGTWTMEGNKLVGKFKRVDNGKELIAVREISGNELIQTYTYEGVEAKRIFKKE stay below 0.9?
Reply: true (1)

Task item: Does the reported ΔR/ΔRAD2 OA of L2P22G6: acrylodan-labeled rI-FABP-L72A mutein: M18 I, G31 Y, F55 WT, A73 G (protein, UniProt P02693 2-132, looked up, variant M18I G31Y L72A A73G, acrylodan label, acrylodan-labeled rI-FABP-L72A mutein: M18 I, G31 Y, F55 WT, A73 G) Fatty acid-binding protein, …: AFDGTWKVDRNENYEKFIEKMGINVVKRKLYAHDNLKLTITQEGNKFTVKESSNFRNIDVVFELGVDFAYSAGDGTELTGTWTMEGNKLVGKFKRVDNGKELIAVREISGNELIQTYTYEGVEAKRIFKKE stay below 0.9?
Reply: false (0)

Task item: Does the reported ΔR/ΔRAD2 OA of L1P7 B11: acrylodan-labeled rI-FABP mutein: Y14 I, L38 I, L72 V, Y117 wt (protein, UniProt P02693 2-132, looked up, variant Y14I L38I L72V, acrylodan label, acrylodan-labeled rI-FABP mutein: Y14 I, L38 I, L72 V, Y117 wt) Fatty acid-binding protein, …: AFDGTWKVDRNENIEKFMEKMGINVVKRKLGAHDNLKITITQEGNKFTVKESSNFRNIDVVFELGVDFAYSVADGTELTGTWTMEGNKLVGKFKRVDNGKELIAVREISGNELIQTYTYEGVEAKRIFKKE stay below 0.9?
Reply: true (1)

Task item: Does the reported ΔR/ΔRAD2 OA of L2P4C5: acrylodan-labeled rI-FABP-L72A mutein: M18 I, G31 Y, F55 WT, A73 WT (protein, UniProt P02693 2-132, looked up, variant M18I G31Y L72A, acrylodan label) Fatty acid-binding protein, …: AFDGTWKVDRNENYEKFIEKMGINVVKRKLYAHDNLKLTITQEGNKFTVKESSNFRNIDVVFELGVDFAYSAADGTELTGTWTMEGNKLVGKFKRVDNGKELIAVREISGNELIQTYTYEGVEAKRIFKKE stay below 0.9?
Reply: false (0)
